- Test Details: gradient 5% acetonitrile 3 min, to 50% in 2 min, to 85% in 15 min, held 3 min, 100 µL/min
- Measurement Context: column: Zorbax Extend-C18 2.1 x 50 mm; eluents: water / acetonitrile, 0.1% formic acid
Threshold check on RP-LC retention time: at or above 700 s gives yes (1), strictly below gives no (0).

Molecule: CCN1CCC(Nc2ccnc3cc(Cl)ccc23)CC1
Assigned Class: no (0)
//
Molecule: O=C(Nc1cccc2ccccc12)c1ccccc1
Assigned Class: yes (1)
//
Molecule: CN1C(=O)C2(CCN(C(=O)C3CCCCC3)CC2)c2ccccc21
Assigned Class: yes (1)
//
Molecule: CCCCN(CC)CCNC(=O)C1CCCN(c2ncnc3c2nc2n3CCCCC2)C1 (stereo not given)
Assigned Class: no (0)
//
Molecule: Cc1c(C(=O)C(=O)N(C)Cc2ccccc2)c2ccccc2n1C
Assigned Class: yes (1)
//
Molecule: O=C(Cn1c(=O)c2cccn2c2ccc(F)cc21)NCCCN1CCc2ccccc2C1
Assigned Class: no (0)
//
Molecule: CCN(CC)c1nc2cc(C(=O)OC)ccc2c(=O)n1Cc1ccc(F)cc1
Assigned Class: yes (1)
//
Molecule: Cn1nccc1-c1cccc(-c2noc(-c3ccccc3F)n2)c1
Assigned Class: yes (1)
//
Molecule: Cc1ccc(N2C(=O)C3N=NN(Cc4nc(-c5ccc(Cl)cc5)no4)C3C2=O)cc1 (stereo not given)
Assigned Class: yes (1)
//
Molecule: CC(=O)N1CCCC1c1nc2ccccc2n1CC(=O)N1CCC(C)CC1 (stereo not given)
Assigned Class: no (0)
//
Molecule: Cc1ccc(-c2c(C)noc2C)cc1S(=O)(=O)NCc1ccccc1
Assigned Class: yes (1)
//
Molecule: COc1ccc(-c2cn3c(CC(=O)N4CCN(c5ccccn5)CC4)csc3n2)cc1OC
Assigned Class: yes (1)
//
Molecule: O=C(Cn1cnc2nc(N3CCCC(C(=O)NC4CC4)C3)sc2c1=O)Nc1ccc(F)cc1 (stereo not given)
Assigned Class: no (0)
//
Molecule: COC(=O)c1ccc(C(=O)NCC2CCN(c3ncccn3)CC2)cc1
Assigned Class: no (0)
//
Molecule: O=C1CCCN1CCCN1C(=O)[C@H]2CN(Cc3cccc(F)c3F)C[C@H]2C1=O
Assigned Class: no (0)
//
Molecule: COCc1nnc(C(=O)Nc2ccc(C(=O)NCCc3c[nH]c4ccc(Cl)cc34)cc2)s1
Assigned Class: yes (1)
//
Molecule: CCSc1nnc(NC(=O)C2CCCN(c3ccc(-c4ccco4)nn3)C2)s1 (stereo not given)
Assigned Class: no (0)
//
Molecule: CC(O)CCC(=O)NCCc1nc2ccccc2n1Cc1ccccc1F (stereo not given)
Assigned Class: no (0)
//
Molecule: O=C(CSc1nc(=O)[nH]c2c1CCCC2)N1CCCc2ccccc21
Assigned Class: yes (1)

----------
- Test Details: gradient 5% acetonitrile 3 min, to 50% in 2 min, to 85% in 15 min, held 3 min, 100 µL/min
- Measurement Context: column: Zorbax Extend-C18 2.1 x 50 mm; eluents: water / acetonitrile, 0.1% formic acid
Threshold check on RP-LC retention time: at or above 700 s gives fulfilled, strictly below gives not fulfilled.

Compound: O=C(Cn1cnc2nc3c(cc2c1=O)CCCC3)N1CCN(c2ccccc2)CC1
Assigned Class: fulfilled
--
Compound: Cc1c(C)n(-c2ccc(Cl)cc2)c2ncn(CC(=O)NC3CCCCC3)c(=O)c12
Assigned Class: not fulfilled
--
Compound: Cc1ccc(-c2nc(-c3ccc4c(c3)nnn4CCN3CCOCC3)no2)cc1C
Assigned Class: fulfilled
--
Compound: O=c1c2nnc(SCc3ccc(F)cc3)n2ccn1-c1ccc(F)cc1
Assigned Class: fulfilled
--
Compound: CCOc1ccc(C2Cn3nnc(-c4nc(-c5ccccc5F)no4)c3CO2)cc1 (centres undefined)
Assigned Class: fulfilled
--
Compound: Cc1ccc(NC(=O)N2CCC(N3CCN(Cc4ccccn4)C(=O)C3=O)CC2)cc1Cl
Assigned Class: not fulfilled
--
Compound: CCOc1ccc(C(=O)N2CCN(c3ccc(-c4nc(CC)cs4)cn3)CC2)cc1
Assigned Class: fulfilled
--
Compound: Cn1nc(C(=O)N2CCOCC2)c2c1CCN(C(=O)Nc1ccccc1Cl)C2
Assigned Class: not fulfilled
--
Compound: COc1ccc(-c2cc(N3CCC(NC(=O)c4ccc(Cl)cc4)C3)n[nH]2)cc1 (centres undefined)
Assigned Class: fulfilled

----------
RP-LC retention time values by entry
- Test Details: gradient 5% acetonitrile 3 min, to 50% in 2 min, to 85% in 15 min, held 3 min, 100 µL/min
- Measurement Context: column: Zorbax Extend-C18 2.1 x 50 mm; eluents: water / acetonitrile, 0.1% formic acid

Compound: CCCS(=O)(=O)NCCN1C(=O)C2(CCCCC2)C1c1ccccc1 (stereo not given)
RP-LC retention time: 898 s
//
Compound: COc1cc(NC(=O)N2CCOc3ccc(Cl)cc32)cc(OC)c1OC
RP-LC retention time: 899 s
//
Compound: Cc1ccc(-c2nc(-c3ccnc(N4CCCC4)c3)no2)s1
RP-LC retention time: 733 s
//
Compound: CCOCC(=O)N1CCC(Oc2nccnc2N(C)C)C1 (stereo not given)
RP-LC retention time: 616 s
//
Compound: COc1ccc(OC)c(-c2csc(-c3nnn(-c4ccc(C)cc4)c3N)n2)c1
RP-LC retention time: 1160 s
//
Compound: COc1cc(NC(=O)Cn2c(C)nc3c(sc4nc(-c5ccccc5)ccc43)c2=O)cc(OC)c1
RP-LC retention time: 1060 s
//
Compound: Cc1cccc(CN2CCCn3nc(C(=O)NCc4cccs4)cc3C2=O)c1
RP-LC retention time: 874 s
//
Compound: CCC(C)NC(=O)c1cc(C)nc2ccc(F)cc12 (stereo not given)
RP-LC retention time: 680 s
//
Compound: CN(C)c1ccc(CNC(=O)Cn2cnc3nc4c(cc3c2=O)CCCC4)cc1
RP-LC retention time: 586 s
//
Compound: CC(C)n1c(CNC(=O)C2CC(=O)N(c3n[nH]c4ccccc34)C2)nc2ccccc21 (stereo not given)
RP-LC retention time: 614 s
//
Compound: COc1ccc(CC(=O)Nc2ccc3c(c2)Sc2ncccc2C(=O)N3C)cc1
RP-LC retention time: 748 s
//
Compound: CCOc1ccc(NC(=O)NCC(c2cccnc2)c2c[nH]c3ccccc23)cc1 (stereo not given)
RP-LC retention time: 670 s
//
Compound: CCOc1ccc(-c2csc(Nc3ccc(C)cn3)n2)cc1
RP-LC retention time: 949 s
//
Compound: CCc1cccc(NC(=O)N2[C@H]3CC[C@@H]2c2cncnc2C3)c1
RP-LC retention time: 741 s
//
Compound: N#Cc1ccc(S(=O)(=O)N2CCCN(S(=O)(=O)c3ccccc3)CCC(=O)NCC2)cc1
RP-LC retention time: 797 s
//
Compound: CCOC(=O)c1nc(SC)n(C)c1C(=O)OCC
RP-LC retention time: 834 s
//
Compound: CN1C(=O)c2cc(C(=O)NCCc3ccccc3)nn2CC1(C)C(=O)NC1CCCC1 (stereo not given)
RP-LC retention time: 761 s
//
Compound: O=C(NCCOc1ccc2c(c1)OCO2)c1c(F)cccc1F
RP-LC retention time: 760 s
//
Compound: COC(=O)C1=CN(c2ccccc2OC)c2ccccc2S1(=O)=O
RP-LC retention time: 824 s
//
Compound: O=C(C1CC(=O)N(c2n[nH]c3cccc(F)c23)C1)N1CCN(c2ccccn2)CC1 (stereo not given)
RP-LC retention time: 582 s

----------
RP-LC retention time values by entry
- Test Details: gradient 5% acetonitrile 3 min, to 50% in 2 min, to 85% in 15 min, held 3 min, 100 µL/min
- Measurement Context: column: Zorbax Extend-C18 2.1 x 50 mm; eluents: water / acetonitrile, 0.1% formic acid

Molecule: Cc1ccc(C(=O)c2cnc3cc4c(cc3c2N2CCOCC2)OCO4)cc1C
RP-LC retention time / s: 714

Molecule: O=C([C@@H]1C[C@H](F)CN1C(=O)c1ccco1)N1CCCCC1
RP-LC retention time / s: 626

Molecule: CN(C)C(=O)c1csc(S(=O)(=O)N2CCC(C(=O)NC3CCCCCC3)CC2)c1
RP-LC retention time / s: 783

Molecule: Cc1ccc(C(=O)Nc2ccc(N3CCN(C4CCCC4)C3=O)nc2)cc1N1CCCC1=O
RP-LC retention time / s: 686

Molecule: Cc1ccc(S(=O)(=O)c2cnc(N3CCN(c4cc(Cl)ccc4C)CC3)nc2N)cc1
RP-LC retention time / s: 1320

Molecule: COc1ccc(Cn2nnc3cc(C(=O)NCC4CCCO4)ccc32)cc1 (centres undefined)
RP-LC retention time / s: 733

Molecule: CN(C)C(=O)COc1cc(O)c2c(=O)cc(-c3ccccc3)oc2c1
RP-LC retention time / s: 832

Molecule: O=C(NCC1CCCO1)C1CCN(c2ncccc2-c2nc(-c3ccccc3)no2)CC1 (centres undefined)
RP-LC retention time / s: 870

Molecule: CCc1ccccc1S(=O)(=O)N(C)CC1CCOC1 (centres undefined)
RP-LC retention time / s: 850

Data provenance is the METLIN SMRT retention time set (Domingo-Almenara et al. 2019).
